# METHOD DESCRIPTION: Approximate ambient-temperature solubility, solvent addition method
# Assay type: physicochemical
# CONDITION NOTES: organic solvent or mixture, thermodynamic from solid; EtOH, ambient temperature
Counter-ions that a name gives are not always drawn.
QUANTITY MEASURED: solubility

solubility reading for CC[C@H]1CC2C[C@H]3c4[nH]c5ccc(O)cc5c4CCN(C2)C13 [HCl, Form A, noribogaine hydrochloride] : < 1000 µg/mL

---

# METHOD DESCRIPTION: Approximate ambient-temperature solubility, solvent addition method
# Format: physicochemical
# CONDITION NOTES: aqueous with cosolvent or surfactant or cyclodextrin, thermodynamic from solid; ACN:water 80:20, ambient temperature
Where a name gives a salt, the structure may show the parent alone.
QUANTITY MEASURED: solubility (µg/mL)
Numbers only, in µg/mL.

Form field solubility, entry CC[C@H]1CC2C[C@H]3c4[nH]c5ccc(O)cc5c4CCN(C2)C13 [HCl, Form A, noribogaine hydrochloride] : 9000
